system: KM12 colon; assay: NCI tumour cell line growth inhibition, 48 h
READOUT TYPE: TGI (µM)
One number for each entry, in µM.

- COMPOUND: "CCN(CC)CC(C)(C)C(=O)/C=C/c1cccc(/C=C/C(=O)C(C)(C)CN(CC)CC)c1"
  TARGET SYSTEM: "KM12 colon"
  MEASUREMENT UNITS: "µM"
  TGI: 1.77

Consider the record given below.
Enter reported TGI observed with KM12 colon for COc1cc(C2S/C(=C/c3ccccc3)C(=O)N2c2ccc(NC(C)=O)cc2)cc(OC)c1OC (centres undefined) 31

---

Would you kindly list TGI for each of these compounds?
system: SF-295 CNS; assay: NCI tumour cell line growth inhibition, 48 h
One number for each entry, in µM.

- COMPOUND: "O=C1C(Cl)=C(Sc2nnc3c4ccccc4c4ccccc4c3n2)C(=O)c2ccccc21"
  MEASUREMENT UNITS: "µM"
  TGI: 23.3

Would you mind listing TGI for each of the following compounds?
1. CC1(C)CC(O)C2=C(O1)C(=O)c1ncccc1C2=O (stereo unspecified)
2. NC1=CC(=O)c2cccnc2C1=O
3. CC(=O)OCC(C)C1=C(OC(C)=O)C(=O)C2(C)C/C=C(/C)CC/C=C(\C)CCC(OC(C)=O)C(C)CCC12 (stereo unspecified)
4. Oc1ccc([Te]CCNCC[Te]c2ccc(O)cc2)cc1
5. CCCC(=O)Nc1cc(/C=C/C(=O)N2CC(CCl)c3c2cc(OCc2ccccc2)c2[nH]cc(C)c32)n(C)c1 (stereo unspecified)
6. OCc1cc2c(ccc3sc4ccc5sc6ccc7ncccc7c6c5c4c32)s1
7. CCOC(=O)C1=C(C)N=c2s/c(=C\c3ccccc3O)c(=O)n2C1c1ccc(OC)c2ccccc12 (stereo unspecified)

[3.35, 3.1, 31.3, 75.4, 0.334, 27.7, 30]

Would you mind listing TGI for each of the following compounds?
1. CCN(CC)CCNc1ccc(C)c2sc3cc(Cl)ccc3c(=O)c12
2. CN(C)CCNc1nc2ccccc2c2c1CCCC2

[3.16, 31.1]
